- assay-system: full-length beta-Catenin (Uniprot ID P35222) (Homo sapiens)
- Construct: 10 nM full-length beta-Catenin (Uniprot ID P35222)
- Sequence (P35222 whole entry): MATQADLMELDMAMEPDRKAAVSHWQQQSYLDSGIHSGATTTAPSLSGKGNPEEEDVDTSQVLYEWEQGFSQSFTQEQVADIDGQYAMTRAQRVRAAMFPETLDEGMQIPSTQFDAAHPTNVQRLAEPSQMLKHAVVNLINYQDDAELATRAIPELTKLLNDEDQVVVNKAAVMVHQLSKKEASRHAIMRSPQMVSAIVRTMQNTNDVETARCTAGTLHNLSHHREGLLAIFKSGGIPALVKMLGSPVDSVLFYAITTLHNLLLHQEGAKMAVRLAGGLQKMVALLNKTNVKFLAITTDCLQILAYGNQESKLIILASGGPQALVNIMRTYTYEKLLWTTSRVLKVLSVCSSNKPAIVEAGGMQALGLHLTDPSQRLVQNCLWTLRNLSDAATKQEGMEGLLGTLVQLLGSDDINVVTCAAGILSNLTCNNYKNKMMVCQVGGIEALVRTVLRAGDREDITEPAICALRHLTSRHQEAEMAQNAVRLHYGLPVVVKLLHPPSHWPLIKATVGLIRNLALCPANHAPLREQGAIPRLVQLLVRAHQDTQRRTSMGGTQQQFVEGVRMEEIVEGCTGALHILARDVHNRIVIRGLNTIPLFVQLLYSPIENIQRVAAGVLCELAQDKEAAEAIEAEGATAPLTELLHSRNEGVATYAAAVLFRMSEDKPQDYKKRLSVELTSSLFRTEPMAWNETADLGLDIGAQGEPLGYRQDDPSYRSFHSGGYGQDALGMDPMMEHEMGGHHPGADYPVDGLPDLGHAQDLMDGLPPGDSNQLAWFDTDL
- experimental-protocol: Fluorescence polarization IC50 (beta-catenin / 5FAM-TCF4 10-53 competition)
- Format: binding
- measurement-conditions: fluorescence polarization; read-out: beta-Catenin FP IC50
outcome-measure: IC50 (nM)

>  <compound>
CCCC[C@@H]1NC(=O)[C@H](CC(=O)O)NC(=O)[C@]2(CC=CCCCC3(CCCC=CCCCOC(=O)N4CC[C@@](C(=O)N[C@@H](Cc5ccsc5)C(=O)N[C@@H](Cc5csc6ccccc56)C(=O)N[C@@H](CC(C)C)C(N)=O)(C4)NC(=O)[C@H](CC(C)C)NC(=O)[C@H](Cc4ccccc4)NC(=O)[C@H](C)NC(=O)[C@H](C)NC(=O)[C@H](CC(=O)O)NC(=O)[C@H](CC(=O)O)NC3=O)NC1=O)CCCN2C(C)=O (stereo partly drawn) [I-1412]

>  <unit-tag>
nM

>  <observed-result>
79

$$$$
>  <compound>
CC(=O)N1CCC[C@]12CC=CCCCC1(CCCC=CCCCOC(=O)N3CC[C@@](C(=O)N[C@@H](Cc4ccccc4)C(=O)N[C@@H](Cc4ccc5ccccc5c4)C(=O)N[C@@H](CCC(N)=O)C(N)=O)(C3)NC(=O)[C@H](CC(C)C)NC(=O)[C@H](Cc3ccccc3)NC(=O)[C@H](C)NC(=O)[C@H](CCCCNC(C)C)NC(=O)[C@H]([C@@H](C)O)NC(=O)[C@H](CC(=O)O)NC1=O)NC(=O)[C@H](C)NC(=O)[C@H](CC(N)=O)NC2=O (stereo partly drawn) [I-1387]

>  <unit-tag>
nM

>  <observed-result>
6940

$$$$
>  <compound>
CC(=O)N1CCC[C@]12CC=CCCCC1(CCCC=CCCCOC(=O)N3CC[C@@](C(=O)N[C@@H](Cc4ccsc4)C(=O)N[C@@H](Cc4csc5ccccc45)C(=O)N[C@@H](CCC(N)=O)C(N)=O)(C3)NC(=O)[C@H](CC(C)C)NC(=O)[C@H](Cc3ccccc3)NC(=O)[C@H](C)NC(=O)[C@H](C)NC(=O)[C@H](CN3CCCC[C@H]3C(=O)O)NC(=O)[C@H](CC(=O)O)NC1=O)NC(=O)[C@H](CC(C)(C)C)NC(=O)[C@H](CC(=O)O)NC2=O (stereo partly drawn) [I-1968]

>  <unit-tag>
nM

>  <observed-result>
29

$$$$
